Entries and their EC50
Tested on: HCV replicon 1B
Test: HCV Rep 1B EC50 (replicon luciferase)
Assay type: cell-based
Conditions: Hepatitis C virus, 72 h, read-out: HCV Rep 1B EC50, replicon cells, 3 days
Answer in µM, number only, no unit symbol.

| COMPOUND | READOUT UNITS | EC50 |
| --- | --- | --- |
| CCCCCCCCCCCC(=O)OCCNP(=O)(OC[C@@]1(C#N)O[C@@H](c2ccc3c(N)ncnn23)[C@H](O)[C@@H]1O)Oc1ccccc1 (mixture of isomers) | µM | 0.861 |
| C[C@H](NP(=O)(OC[C@@]1(C#N)O[C@@H](c2ccc3c(N)ncnn23)[C@H](O)[C@@H]1O)Oc1ccccc1)C(=O)OCC1CCCCC1 (single isomer, unassigned) | µM | 0.665 |

Lab note: next compound to report on.
Incoming: Please report the measured EC50 for C[C@H](N[P@](=O)(OC[C@@]1(C#N)O[C@@H](c2ccc3c(N)ncnn23)[C@H](O)[C@@H]1O)Oc1ccccc1)C(=O)OC1CCCCC1 (single isomer, unassigned)
Outgoing: 0.793

====

Entries and their CC50 values follow.
Test: HEp-2 CC50 (cytotoxicity, Cell-Titer Glo)
Type: cell-based
Conditions: human; uninfected HEp-2 cells, 4-5 days
Output spec: scalar in µM, unitless text.

| COMPOUND | ENDPOINT VALUE |
| --- | --- |
| CC(C)C(=O)O[C@H]1[C@@H](O)[C@H](c2ccc3c(N)ncnn23)O[C@]1(C#N)CO[P@@](=O)(N[C@@H](C)C(=O)OC1CCCCC1)Oc1ccccc1 (single isomer, unassigned) | 55.2 |

// moving on: another record for CC50
Incoming: Name the recorded CC50 of the item CC(C)C(=O)O[C@H]1[C@H](c2ccc3c(N)ncnn23)O[C@](C#N)(CO[P@@](=O)(N[C@@H](C)C(=O)OC2CCCCC2)Oc2ccccc2)[C@H]1O (single isomer, unassigned) in your answer.
Outgoing: 58.6

====

Tested on: HRV16
Experiment: HRV16 HELA EC50 (cytopathic effect in H1-HeLa cells)
Format: cell-based
Conditions: 96 h, H1-HeLa cells, 33° C., read-out: HRV16 HELA EC50
Could you mark each record true (1) if its EC50 falls strictly under 9 µM, and false (0) if it equals or exceeds it?

| COMPOUND | CATEGORY LABEL |
| --- | --- |
| CCOC(=O)[C@H](CCCCNC(C)=O)NP(=O)(OC[C@@]1(C#N)O[C@@H](c2ccc3c(N)ncnn23)[C@H](O)[C@@H]1O)Oc1ccccc1 (mixture of isomers) [Example 85] | false (0) |
| N#C[C@]1(COP(=O)(NC2(C(=O)OC3CCCCC3)CCC2)Oc2ccccc2)O[C@@H](c2ccc3c(N)ncnn23)[C@H](O)[C@@H]1O (stereo partly shown) [Example 107] | false (0) |
| CC(C)[C@H](NP(=O)(OC[C@@]1(C#N)O[C@@H](c2ccc3c(N)ncnn23)[C@H](O)[C@@H]1O)Oc1ccccc1)C(=O)OC1CCCCC1 (stereo partly shown) [Example 98] | false (0) |
| CC(NP(=O)(OC[C@@]1(C#N)O[C@@H](c2ccc3c(N)ncnn23)[C@H](O)[C@@H]1O)Oc1ccccc1)C(=O)O[C@H]1CCNC1=O (mixture of isomers) [Example 153] | false (0) |
| CCOC(=O)[C@H](C)N[P@](=O)(OC[C@@]1(C#N)O[C@@H](c2ccc3c(N)ncnn23)[C@@H]2OC(OCC)O[C@@H]21)Oc1ccccc1 (stereo partly shown) [Example 233] | true (1) |
| C[C@H](NP(=O)(OC[C@@]1(C#N)O[C@@H](c2ccc3c(N)ncnn23)[C@H](O)[C@@H]1O)Oc1ccccc1)C(=O)O[C@H]1CC[C@H](C(C)(C)C)CC1 (stereo partly shown) [Example 21] | true (1) |

Incoming: Is the reported EC50 for COC(=O)[C@H](C)N[P@](=O)(OC[C@@]1(C#N)O[C@@H](c2ccc3c(N)ncnn23)[C@H](OC(=O)C(C)C)[C@@H]1O)Oc1ccccc1 [Example 250] strictly below 9 µM?
Outgoing: true (1)

Incoming: Consider CCC(CC)COC(=O)[C@H](CC)NP(=O)(OC[C@@]1(C#N)O[C@@H](c2ccc3c(N)ncnn23)[C@H](O)[C@@H]1O)Oc1ccccc1 (mixture of isomers) [Example 88] . Does its EC50 lie strictly below 9 µM?
Outgoing: true (1)

Incoming: # check: EC50 < 9 µM for C[C@H](NP(=O)(OC[C@@]1(C#N)O[C@@H](c2ccc3c(N)ncnn23)[C@H](O)[C@@H]1O)Oc1ccccc1)C(=O)OCC1CCOCC1 (stereo partly shown) [Example 20]
Outgoing: true (1)
